# TESTED_TARGET: UniProt:Q96Q89
# Sequence (Q96Q89 whole entry, the tested form may be a part): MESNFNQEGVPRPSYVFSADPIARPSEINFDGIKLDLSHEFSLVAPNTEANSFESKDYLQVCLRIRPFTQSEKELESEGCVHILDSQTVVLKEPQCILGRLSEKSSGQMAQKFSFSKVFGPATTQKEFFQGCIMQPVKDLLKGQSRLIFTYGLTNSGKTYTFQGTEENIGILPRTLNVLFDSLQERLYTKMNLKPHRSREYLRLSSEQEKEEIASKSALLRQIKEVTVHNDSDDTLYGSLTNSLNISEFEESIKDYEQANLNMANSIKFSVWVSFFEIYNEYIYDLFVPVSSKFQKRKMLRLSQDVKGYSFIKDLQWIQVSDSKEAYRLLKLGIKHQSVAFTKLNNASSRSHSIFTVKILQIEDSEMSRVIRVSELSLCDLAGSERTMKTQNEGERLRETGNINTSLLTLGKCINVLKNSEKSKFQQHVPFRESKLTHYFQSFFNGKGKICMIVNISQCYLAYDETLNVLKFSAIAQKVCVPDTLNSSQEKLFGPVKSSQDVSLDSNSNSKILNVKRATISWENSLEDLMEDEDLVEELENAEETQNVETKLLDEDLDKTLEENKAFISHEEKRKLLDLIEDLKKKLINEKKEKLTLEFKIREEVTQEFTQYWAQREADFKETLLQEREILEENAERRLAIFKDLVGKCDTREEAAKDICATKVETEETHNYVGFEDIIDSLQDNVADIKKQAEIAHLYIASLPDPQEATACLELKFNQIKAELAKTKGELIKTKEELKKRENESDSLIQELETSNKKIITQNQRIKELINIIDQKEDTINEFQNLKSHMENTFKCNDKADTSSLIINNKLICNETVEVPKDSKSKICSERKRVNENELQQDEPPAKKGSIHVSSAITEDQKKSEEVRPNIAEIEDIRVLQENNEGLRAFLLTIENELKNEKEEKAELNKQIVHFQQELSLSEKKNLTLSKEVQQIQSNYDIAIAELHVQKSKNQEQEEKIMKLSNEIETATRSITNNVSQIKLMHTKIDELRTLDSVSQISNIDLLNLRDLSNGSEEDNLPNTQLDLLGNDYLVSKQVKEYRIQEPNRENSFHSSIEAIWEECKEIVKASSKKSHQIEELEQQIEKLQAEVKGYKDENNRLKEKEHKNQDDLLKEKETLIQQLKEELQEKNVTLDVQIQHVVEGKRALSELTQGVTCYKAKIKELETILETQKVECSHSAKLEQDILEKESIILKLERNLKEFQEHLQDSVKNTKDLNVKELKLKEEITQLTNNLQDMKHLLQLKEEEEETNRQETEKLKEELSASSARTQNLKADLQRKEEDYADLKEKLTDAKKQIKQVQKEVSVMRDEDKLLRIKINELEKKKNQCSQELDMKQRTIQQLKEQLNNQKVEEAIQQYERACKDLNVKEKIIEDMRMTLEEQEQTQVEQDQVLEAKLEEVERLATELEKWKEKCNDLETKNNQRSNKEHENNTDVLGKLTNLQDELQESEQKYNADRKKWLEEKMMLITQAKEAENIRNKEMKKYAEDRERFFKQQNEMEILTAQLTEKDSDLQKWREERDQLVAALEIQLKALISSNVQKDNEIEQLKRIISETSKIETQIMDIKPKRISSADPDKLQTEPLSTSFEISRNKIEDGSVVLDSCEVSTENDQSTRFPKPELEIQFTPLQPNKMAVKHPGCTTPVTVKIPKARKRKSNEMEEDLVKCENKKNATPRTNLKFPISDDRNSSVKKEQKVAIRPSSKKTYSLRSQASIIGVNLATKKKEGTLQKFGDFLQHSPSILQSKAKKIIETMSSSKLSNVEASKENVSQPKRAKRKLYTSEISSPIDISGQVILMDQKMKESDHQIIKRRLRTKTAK
# MEASUREMENT_DESCRIPTION: Inhibition of microtubule-stimulated ATPase activity of N-terminal His6-tagged/SUMO-fused human MPP1 motor domain (2 to 477 residues) expressed in Escherichia coli BL21 CodonPlus by pyruvate kinase/lactate dehydrogenase-linked assay
REPORTED_METRIC: IC50 (µM)

a. CCCCCC(=O)Cc1cc(O)cc2c1C(=O)Oc1cc(O)c(C(=O)O)c(CCCCC)c1O2 [PHYSODIC ACID]
b. CCCCCc1cc(O)cc2c1Oc1cc(O)cc(C(=O)CCCC)c1C(=O)O2
Please indicate which entry, a or b , has the lower recorded IC50 value. Select an item and report its label.
a

====

# MEASUREMENT_DESCRIPTION: Cytotoxicity against human K562 cells assessed as growth inhibition after 72 hrs by Alamar Blue assay
# Type: functional, cell-based
# TEST_CONDITIONS: K562, 72 h
Reported pEC50 values for a set of compounds
Please treat pEC50 as minus the base-10 logarithm of the molar concentration.

Example compounds with recorded pEC50:
So what does the record say about pEC50 for "CCCCCC(=O)Cc1cc(O)cc2c1C(=O)Oc1cc(O)c(C(=O)O)c(CCCCC)c1O2" ?
4.49

Which pEC50 is reported for this compound? "CCCCCc1cc(O)cc2c1Oc1cc(O)cc(C(=O)CCCC)c1C(=O)O2"
4.36

Pending compound:
Name the recorded pEC50 for "CCCCCc1c2c(cc(O)c1C(=O)O)OC(=O)c1c(cc(OC)cc1C(=O)CCCC)O2" .
5.85
